The origin of these recorded values is paper PMC2248166.

Biological target: HLA A*0201 (Homo sapiens, UniProt P04439, D140Y/D185E/D98H/E176V/E277Q/G131W/G231S/I119V/I121R/I166T/I218V/L300P/L318F/N151K/N90K/P208A/P217A/Q86G/Q94H/R138H/R169H/T345S)
Details: positional scanning combinatorial 9-mer library; normalized to 1.0 for the best residue at each position
Values of Normalized average relative binding affinity (ARB), HLA A*0201 greater than or equal to 0.1 map to yes (1); values below map to no (0).

Record excerpt, results attached:
Form field: Normalized average relative binding affinity (ARB), HLA A*0201 at least 0.1? Entry: XXLXXXXXX [3064.0050]
yes (1)

Let us now turn to XYXXXXXXX [3064.0040]
no (0)

Let us now turn to XWXXXXXXX [3064.0039]
no (0)

***
Form field: Normalized average relative binding affinity (ARB), HLA A*0201 at least 0.1? Entry: XXNXXXXXX [3064.0052]
yes (1)

Let us now turn to XXRXXXXXX [3064.0055]
no (0)

Let us now turn to XAXXXXXXX [3064.0021]
no (0)

Let us now turn to PXXXXXXXX [3064.0013]
no (0)

Let us now turn to XQXXXXXXX [3064.0034]
yes (1)
